target: human phosphoinositide-3 kinase (PI3K) delta (Homo sapiens, UniProt O00329); construct: myristoylation signal (myristoylated form); assay: PI3K-mediated Akt 1/2 (S473) phosphorylation in Rat-1 cells (Cell PI3Kδ); conditions: Rat-1 cells overexpressing myristoylated human PI3K delta; p-Akt (Ser473)
Sequence (O00329 whole entry): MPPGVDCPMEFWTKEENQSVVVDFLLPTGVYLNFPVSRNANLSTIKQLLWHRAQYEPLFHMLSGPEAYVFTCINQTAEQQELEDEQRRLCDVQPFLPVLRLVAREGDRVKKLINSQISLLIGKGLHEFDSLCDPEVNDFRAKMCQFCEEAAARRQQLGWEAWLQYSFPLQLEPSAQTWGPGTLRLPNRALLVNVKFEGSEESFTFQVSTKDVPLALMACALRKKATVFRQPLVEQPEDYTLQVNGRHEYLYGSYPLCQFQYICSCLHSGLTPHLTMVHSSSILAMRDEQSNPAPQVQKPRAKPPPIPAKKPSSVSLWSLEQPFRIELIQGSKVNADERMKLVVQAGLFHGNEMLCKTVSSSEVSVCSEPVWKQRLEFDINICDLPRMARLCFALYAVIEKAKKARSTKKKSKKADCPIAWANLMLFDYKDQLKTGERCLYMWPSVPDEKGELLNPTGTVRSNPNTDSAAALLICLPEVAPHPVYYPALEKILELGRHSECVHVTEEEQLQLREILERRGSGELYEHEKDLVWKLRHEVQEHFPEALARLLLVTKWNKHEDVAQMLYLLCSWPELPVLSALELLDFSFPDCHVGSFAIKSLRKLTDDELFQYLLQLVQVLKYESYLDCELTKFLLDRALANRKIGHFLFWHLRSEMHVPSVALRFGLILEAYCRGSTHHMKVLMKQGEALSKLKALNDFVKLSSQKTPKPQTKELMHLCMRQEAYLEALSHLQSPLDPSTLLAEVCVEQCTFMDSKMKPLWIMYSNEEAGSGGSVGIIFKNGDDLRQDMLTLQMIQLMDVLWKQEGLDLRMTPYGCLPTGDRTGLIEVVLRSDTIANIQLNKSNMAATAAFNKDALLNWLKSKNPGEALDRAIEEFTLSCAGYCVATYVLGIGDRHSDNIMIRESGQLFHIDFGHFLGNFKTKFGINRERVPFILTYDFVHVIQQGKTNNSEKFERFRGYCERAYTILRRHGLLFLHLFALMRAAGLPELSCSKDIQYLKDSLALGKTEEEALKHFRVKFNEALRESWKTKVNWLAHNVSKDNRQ
Sequence (Q63787 whole entry partner): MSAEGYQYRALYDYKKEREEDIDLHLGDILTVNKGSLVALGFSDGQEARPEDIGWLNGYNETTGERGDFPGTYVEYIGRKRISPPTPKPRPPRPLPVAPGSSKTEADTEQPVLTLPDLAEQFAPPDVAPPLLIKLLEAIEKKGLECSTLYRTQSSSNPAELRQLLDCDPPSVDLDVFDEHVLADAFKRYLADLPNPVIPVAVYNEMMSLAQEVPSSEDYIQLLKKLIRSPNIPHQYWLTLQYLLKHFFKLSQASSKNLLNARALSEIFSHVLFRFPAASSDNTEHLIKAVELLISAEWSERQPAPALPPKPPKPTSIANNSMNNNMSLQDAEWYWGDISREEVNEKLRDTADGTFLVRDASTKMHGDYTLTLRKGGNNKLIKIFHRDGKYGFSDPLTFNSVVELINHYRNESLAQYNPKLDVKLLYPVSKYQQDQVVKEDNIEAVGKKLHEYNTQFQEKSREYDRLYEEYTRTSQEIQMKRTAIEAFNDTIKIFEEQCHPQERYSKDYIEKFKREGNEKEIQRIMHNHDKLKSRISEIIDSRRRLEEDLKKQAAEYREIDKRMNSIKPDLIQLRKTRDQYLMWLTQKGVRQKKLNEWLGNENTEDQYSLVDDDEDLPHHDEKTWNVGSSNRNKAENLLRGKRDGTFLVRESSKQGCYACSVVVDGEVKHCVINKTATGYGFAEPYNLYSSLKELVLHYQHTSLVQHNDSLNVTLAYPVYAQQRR
EXPERIMENTAL_READOUT: IC50 (µM)

Consider the following illustrative entries.
{"CPD_SMILES": "COc1ncc(-c2ccnc3ccc(O[C@H]4CCN(C(=O)[C@@H]5CCN(C(C)=O)C5)C4)cc23)cc1C(F)F", "ASSAY_SYSTEM": "human phosphoinositide-3 kinase (PI3K) delta (Homo sapiens, UniProt O00329)", "IC50 [µM]": 0.014}
{"CPD_SMILES": "CCC(=O)N1CC[C@H](Oc2ccc3nccc(-c4cnc(S(C)(=O)=O)c(C)c4)c3c2)C1", "ASSAY_SYSTEM": "human phosphoinositide-3 kinase (PI3K) delta (Homo sapiens, UniProt O00329)", "IC50 [µM]": 0.26}
{"CPD_SMILES": "COc1ncc(-c2ccnc3ccc(O[C@H]4CCN(C(=O)C5CCS(=O)(=O)CC5)C4)cc23)cc1C(F)F", "ASSAY_SYSTEM": "human phosphoinositide-3 kinase (PI3K) delta (Homo sapiens, UniProt O00329)", "IC50 [µM]": 0.078}
{"CPD_SMILES": "Cc1cc(-c2ccnc3cc(F)c(O[C@H]4CCN(C(=O)C5CCOCC5)C4)cc23)cnc1S(C)(=O)=O", "ASSAY_SYSTEM": "human phosphoinositide-3 kinase (PI3K) delta (Homo sapiens, UniProt O00329)", "IC50 [µM]": 0.116}
{"CPD_SMILES": "COc1ncc(-c2ccnc3ccc(O[C@H]4CCN(C(=O)[C@@H]5CCN(C(C)=O)C5)C4)c(C)c23)cc1C(F)F", "ASSAY_SYSTEM": "human phosphoinositide-3 kinase (PI3K) delta (Homo sapiens, UniProt O00329)", "IC50 [µM]": 0.014}

(P) COc1ncc(-c2ccnc3cc(F)c(O[C@H]4CCN(C(=O)C5CCS(=O)(=O)CC5)C4)cc23)cc1C
(Q) COc1ncc(-c2ccnc3ccc(O[C@H]4CCN(C(=O)C5CCS(=O)(=O)CC5)C4)cc23)cc1Cl
(R) COc1ncc(-c2ccnc3ccc(O[C@H]4CCN(C(=O)[C@@H]5CCN(C(C)=O)C5)C4)cc23)cc1C
(S) COc1ncc(-c2ccnc3ccc(O[C@H]4CCN(C(=O)C5CCS(=O)(=O)CC5)C4)c(C)c23)cc1C
(T) COc1ncc(-c2ccnc3ccc(O[C@H]4CCN(C(=O)C5CCS(=O)(=O)CC5)C4)cc23)cc1C
Order the records, beginning with the lowest IC50 and ending with the highest. Please, when replying, give the labels in the order that was requested.
R, Q, T, S, P
(R: 0.016 µM, Q: 0.032 µM, T: 0.052 µM, S: 0.105 µM, P: 0.246 µM)

* * *

molecular target: PI3K delta (Homo sapiens, UniProt O00329); construct: for the full-length p110-d subunit are generated and fused by overlapping PCR; His tag (C); Tn5 (Trichoplusia ni) or TiniPro insect cells; test: Enzymatic PI3K delta isoform inhibition (lipid kinase activity, Kinase-Glo); details: enzymatic assay
Sequence (O00329 with tags, fused parts or gaps limits assumed): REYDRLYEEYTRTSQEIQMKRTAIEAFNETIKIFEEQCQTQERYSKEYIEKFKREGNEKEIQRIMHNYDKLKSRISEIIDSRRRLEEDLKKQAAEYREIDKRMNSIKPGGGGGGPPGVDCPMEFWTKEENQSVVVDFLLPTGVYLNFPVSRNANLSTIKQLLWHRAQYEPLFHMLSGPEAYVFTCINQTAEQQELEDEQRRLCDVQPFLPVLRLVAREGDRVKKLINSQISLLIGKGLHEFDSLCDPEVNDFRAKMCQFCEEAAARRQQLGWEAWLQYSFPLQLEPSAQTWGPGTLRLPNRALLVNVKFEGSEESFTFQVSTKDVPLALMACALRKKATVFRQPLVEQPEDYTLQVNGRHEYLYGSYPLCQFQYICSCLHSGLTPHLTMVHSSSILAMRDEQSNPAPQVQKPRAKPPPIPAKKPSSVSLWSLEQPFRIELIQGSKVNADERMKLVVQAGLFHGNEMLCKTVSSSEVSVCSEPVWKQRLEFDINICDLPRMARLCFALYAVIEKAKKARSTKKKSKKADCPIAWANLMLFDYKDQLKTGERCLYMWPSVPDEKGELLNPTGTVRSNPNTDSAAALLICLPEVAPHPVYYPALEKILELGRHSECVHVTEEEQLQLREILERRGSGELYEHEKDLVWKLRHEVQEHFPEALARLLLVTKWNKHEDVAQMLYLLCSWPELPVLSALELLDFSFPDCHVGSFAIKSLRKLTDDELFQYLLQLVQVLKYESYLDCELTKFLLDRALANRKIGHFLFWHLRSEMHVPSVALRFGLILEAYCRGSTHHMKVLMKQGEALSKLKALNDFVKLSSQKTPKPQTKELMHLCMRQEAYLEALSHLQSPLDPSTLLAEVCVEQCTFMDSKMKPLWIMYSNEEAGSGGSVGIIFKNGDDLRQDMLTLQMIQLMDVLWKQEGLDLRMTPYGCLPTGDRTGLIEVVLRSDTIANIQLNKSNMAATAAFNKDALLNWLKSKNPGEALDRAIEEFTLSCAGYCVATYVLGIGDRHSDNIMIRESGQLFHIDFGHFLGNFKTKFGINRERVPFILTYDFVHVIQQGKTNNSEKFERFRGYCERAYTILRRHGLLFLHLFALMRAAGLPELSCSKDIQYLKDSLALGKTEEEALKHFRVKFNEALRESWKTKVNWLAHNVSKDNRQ
EXPERIMENTAL_READOUT: IC50 (nM)

Here are 5 compounds together with their reported answers.
{"CPD_SMILES": "COc1ncc(-c2ccnc3ccc(O[C@H]4CCN(C(=O)C5CCOCC5)C4)cc23)cc1C(F)(F)F", "UNIT_OF_MEASURE": "nM", "IC50": 4}
{"CPD_SMILES": "COc1ncc(-c2ccnc3ccc(O[C@H]4CCN(C(=O)C5CCS(=O)(=O)CC5)C4)cc23)cc1C#N", "UNIT_OF_MEASURE": "nM", "IC50": 8}
{"CPD_SMILES": "COc1ncc(-c2ccnc3ccc(O[C@H]4CCN(C(=O)c5cn(C)cn5)C4)cc23)cc1C", "UNIT_OF_MEASURE": "nM", "IC50": 71}
{"CPD_SMILES": "CCC(=O)N1CC[C@H](Oc2ccc3nccc(-c4cnc(S(C)(=O)=O)c(C)c4)c3c2)C1", "UNIT_OF_MEASURE": "nM", "IC50": 12}
{"CPD_SMILES": "Cc1cc(-c2ccnc3cc(F)c(O[C@H]4CCN(C(=O)C5CCOCC5)C4)cc23)cnc1S(C)(=O)=O", "UNIT_OF_MEASURE": "nM", "IC50": 332}

(P) COc1ncc(-c2ccnc3ccc(O[C@H]4CCN(C(=O)[C@@H]5CCN(C(C)=O)C5)C4)c(C)c23)cc1C(F)F
(Q) COc1ncc(-c2ccnc3ccc(O[C@H]4CCN(C(=O)c5cn(C)cn5)C4)cc23)cc1C(F)(F)F
// select label with min value of measured IC50 from [ P , Q ] Bench note: the answer is the label of the chosen record.
P
(P: 5 nM, Q: 13 nM)

* * *

target: PI3K alpha (Homo sapiens); construct: His tag (C); Tn5 (Trichoplusia ni) or TiniPro insect cells; assay: Enzymatic PI3K alpha isoform inhibition (lipid kinase activity, Kinase-Glo); details: enzymatic assay
EXPERIMENTAL_READOUT: IC50 (nM)

Previously resolved entries follow.
{"COMPOUND": "COc1ncc(-c2ccnc3ccc(O[C@H]4CCN(C(=O)C5CCOC5)C4)cc23)cc1C#N (stereo partly drawn) [Example A12]", "EXPERIMENTAL_RESULT": 305}
{"COMPOUND": "COc1ncc(-c2ccnc3ccc(O[C@H]4CCN(C(=O)C5CCOCC5)C4)cc23)cc1C#N [Example A3]", "EXPERIMENTAL_RESULT": 426}
{"COMPOUND": "CCC(=O)N1CC[C@H](Oc2ccc3nccc(-c4cnc(N)c(C(F)(F)F)c4)c3c2)C1 [Example A34]", "EXPERIMENTAL_RESULT": 35}
{"COMPOUND": "COc1ncc(-c2ccnc3ccc(O[C@H]4CCN(C(=O)[C@@H]5CCN(C(C)=O)C5)C4)cc23)cc1C(F)(F)F [Example A11]", "EXPERIMENTAL_RESULT": 257}
{"COMPOUND": "Cc1cc(-c2ccnc3ccc(O[C@H]4CCN(C(=O)C(C)C)C4)cc23)cnc1S(C)(=O)=O [Example A36]", "EXPERIMENTAL_RESULT": 1570}
{"COMPOUND": "COc1ncc(-c2ccnc3ccc(O[C@H]4CCN(C(=O)c5ccc(=O)n(C)c5)C4)cc23)cc1C [Example A32]", "EXPERIMENTAL_RESULT": 851}
{"COMPOUND": "COc1ncc(-c2ccnc3ccc(O[C@H]4CCN(C(=O)C5CCOCC5)C4)cc23)cc1F [Example A13]", "EXPERIMENTAL_RESULT": 802}

(a) CS(=O)(=O)c1ncc(-c2ccnc3ccc(O[C@H]4CCN(C(=O)C5CCOCC5)C4)cc23)cc1C(F)(F)F [Example A37]
(b) Cc1cc(-c2ccnc3cc(F)c(O[C@H]4CCN(C(=O)C5CCOCC5)C4)cc23)cnc1S(C)(=O)=O [Example C2]
Sorting by IC50 in descending order, would a or b appear first? // respond with label for picked entry
b

* * *

target: PI3K alpha (Homo sapiens, UniProt P42336); construct: His tag (C); Tn5 (Trichoplusia ni) or TiniPro insect cells; assay: Enzymatic PI3K alpha isoform inhibition (lipid kinase activity, Kinase-Glo); conditions: enzymatic assay
Sequence (P42336 with tags, fused parts or gaps limits assumed): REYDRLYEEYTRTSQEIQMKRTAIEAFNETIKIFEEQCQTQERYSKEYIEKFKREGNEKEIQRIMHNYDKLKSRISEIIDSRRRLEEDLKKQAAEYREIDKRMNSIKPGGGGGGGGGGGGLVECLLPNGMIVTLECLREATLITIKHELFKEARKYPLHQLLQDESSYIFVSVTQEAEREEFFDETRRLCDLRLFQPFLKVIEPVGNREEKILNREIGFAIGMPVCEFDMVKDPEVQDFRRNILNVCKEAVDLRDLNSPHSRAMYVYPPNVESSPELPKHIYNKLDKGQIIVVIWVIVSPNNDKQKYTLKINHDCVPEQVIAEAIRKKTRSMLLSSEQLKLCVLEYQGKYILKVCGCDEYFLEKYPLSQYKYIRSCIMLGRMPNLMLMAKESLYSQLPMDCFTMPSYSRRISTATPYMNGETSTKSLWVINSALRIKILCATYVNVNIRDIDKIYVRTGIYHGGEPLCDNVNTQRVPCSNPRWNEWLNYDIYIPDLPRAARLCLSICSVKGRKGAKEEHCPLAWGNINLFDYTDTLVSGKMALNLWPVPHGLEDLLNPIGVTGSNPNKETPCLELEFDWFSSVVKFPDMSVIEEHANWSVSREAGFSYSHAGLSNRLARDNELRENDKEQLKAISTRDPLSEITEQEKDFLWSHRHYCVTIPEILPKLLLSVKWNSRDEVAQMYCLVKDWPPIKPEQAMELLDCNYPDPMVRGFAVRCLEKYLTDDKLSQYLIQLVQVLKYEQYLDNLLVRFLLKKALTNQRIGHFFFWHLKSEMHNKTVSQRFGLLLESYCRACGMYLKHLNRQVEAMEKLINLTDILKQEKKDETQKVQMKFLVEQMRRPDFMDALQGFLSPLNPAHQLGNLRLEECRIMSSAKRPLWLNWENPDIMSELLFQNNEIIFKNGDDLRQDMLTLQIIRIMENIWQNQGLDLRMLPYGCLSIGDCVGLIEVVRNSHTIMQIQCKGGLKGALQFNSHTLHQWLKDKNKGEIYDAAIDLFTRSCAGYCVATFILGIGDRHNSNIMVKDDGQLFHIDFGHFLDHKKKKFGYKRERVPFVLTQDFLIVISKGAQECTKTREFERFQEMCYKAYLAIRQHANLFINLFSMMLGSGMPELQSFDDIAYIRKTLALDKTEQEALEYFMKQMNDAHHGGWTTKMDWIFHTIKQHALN
EXPERIMENTAL_READOUT: IC50 (µM)

Below, 8 molecules whose answers are already recorded.
{"CPD_SMILES": "COc1ncc(-c2ccnc3ccc(O[C@H]4CCN(C(=O)[C@@H]5CCN(C(C)=O)C5)C4)cc23)cc1C(F)F", "IC50 [µM]": 0.067}
{"CPD_SMILES": "COc1ncc(-c2ccnc3ccc(O[C@H]4CCN(C(=O)C5CCOCC5)C4)cc23)cc1C", "IC50 [µM]": 0.253}
{"CPD_SMILES": "Cc1cc(-c2ccnc3ccc(O[C@H]4CCN(C(=O)C5CCS(=O)(=O)CC5)C4)cc23)cnc1S(C)(=O)=O", "IC50 [µM]": 1.14}
{"CPD_SMILES": "CS(=O)(=O)c1ncc(-c2ccnc3ccc(O[C@H]4CCN(C(=O)C5CCOCC5)C4)cc23)cc1C(F)F", "IC50 [µM]": 0.341}
{"CPD_SMILES": "CCC(=O)N1CC[C@H](Oc2ccc3nccc(-c4cnc(OC)c(C#N)c4)c3c2)C1", "IC50 [µM]": 0.613}
{"CPD_SMILES": "COc1ncc(-c2ccnc3ccc(O[C@H]4CCN(C(=O)C5CCS(=O)(=O)CC5)C4)c(C)c23)cc1C", "IC50 [µM]": 0.498}
{"CPD_SMILES": "CNc1cc(-c2ccnc3ccc(O[C@H]4CCN(C(=O)C5CCOCC5)C4)cc23)cnc1S(C)(=O)=O", "IC50 [µM]": 2.42}
{"CPD_SMILES": "CC(=O)N1CC[C@@H](C(=O)N2CC[C@H](Oc3ccc4nccc(-c5cnc(OC(F)F)c(C)c5)c4c3C)C2)C1", "IC50 [µM]": 0.869}

(I) COc1ncc(-c2ccnc3ccc(O[C@H]4CCN(C(=O)C5CCN(C(C)=O)CC5)C4)cc23)cc1C
(II) COc1ncc(-c2ccnc3ccc(O[C@H]4CCN(C(=O)c5ccc(=O)[nH]c5)C4)cc23)cc1C(F)(F)F
// which entry reports the smaller IC50, I or II ? Identify your pick by its label.
II
